Hey, just so you know, these numbers are from the kinase profiling compilation of Christmann-Franck et al. (2016).

Target: PRKX (human) (UniProt P51817)
Sequence (P51817 whole entry, looked up): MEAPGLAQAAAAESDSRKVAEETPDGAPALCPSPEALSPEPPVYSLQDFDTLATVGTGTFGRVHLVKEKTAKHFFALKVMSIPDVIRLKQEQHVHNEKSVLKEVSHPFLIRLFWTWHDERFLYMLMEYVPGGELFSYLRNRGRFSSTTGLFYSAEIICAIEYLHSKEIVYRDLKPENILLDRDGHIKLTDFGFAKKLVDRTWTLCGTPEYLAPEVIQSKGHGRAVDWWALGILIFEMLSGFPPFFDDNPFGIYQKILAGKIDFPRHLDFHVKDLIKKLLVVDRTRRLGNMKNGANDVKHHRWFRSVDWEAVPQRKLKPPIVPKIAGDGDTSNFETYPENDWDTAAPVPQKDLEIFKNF
Assay: split-luciferase competition binding
Settings: compound 10.0 µM
Class boundaries, taken from values of inhibition, are as follows: low interval (below 1%), middle interval (1% to below 7%), high interval (7% or more)

Answered examples (4):
>>> classlabel("Brc1c(Br)c(Br)c2[nH]nnc2c1Br")
"middle interval"
>>> classlabel("COc1cc2ncn(-c3cc(OCc4ccccc4C(F)(F)F)c(C(N)=O)s3)c2cc1OC")
"high interval"
>>> classlabel("CN1CC[C@H](c2c(O)cc(O)c3c(=O)cc(-c4ccccc4Cl)oc23)[C@H](O)C1")
"high interval"
>>> classlabel("O=C1NC(=O)C(c2ccccc2[N+](=O)[O-])=C1Nc1ccc(O)c(Cl)c1")
"middle interval"

## Task Exercise: read the entry NC(=O)c1sc(-c2ccsc2)cc1N and state which class it falls under.
## Result low interval
